system: E. coli TESEC Mtb Asd; assay: growth (OD600 after 10 h); higher = more growth (less inhibition); conditions: arabinose induction (level): Low; compound 0.1 mM; raw OD600 reference: median of DMSO wells 0.417, cell-free background 0.041
Counter-ions that a name gives are not always drawn.
Answer f if growth is under 0.3, and t if it is 0.3 or more.

Query :: // inclusive: growth at least 0.3? input: Cc1cccc(C)c1OCC(C)N (stereo not given) [Mexiletine hydrochloride]
Result :: t

Query :: Also need O=C(O)Cc1cc(I)c(Oc2ccc(O)c(I)c2)c(I)c1 , thanks.
Result :: f

Query :: Also need CCCCN(CCCC)CCC(O)c1cc2c(Cl)cc(Cl)cc2c2cc(C(F)(F)F)ccc12 (stereo not given) [Halofantrine hydrochloride] , thanks.
Result :: t
